Test system: EKVX NSCLC
Assay: NCI-60 one-dose screen, 48 h (100 = growth as untreated, 0 = no growth, -100 = all killed)
Details: 10 µM unless noted
About 83,000 compounds went through this panel and 20% of them were active in at least one assay; those are over-represented in the sample as a whole.
Please note: growth exactly at 80% is NO. Only values below 80% get YES.

[[record]]
compound = "Cc1cccc(NC(=O)[C@]23CCC(C)(C)CC2C2=CCC4[C@@]5(C)C[C@@H](O)[C@H](O)[C@@](C)(CO)C5CC[C@@]4(C)[C@]2(C)CC3)c1 (stereo partly drawn)"
label_class = "YES"

[[record]]
compound = "Cn1cc(-c2cc(N)n3nc(-c4cn(C)c5ccccc45)cc3n2)c2cc(Br)ccc21"
label_class = "YES"

[[record]]
compound = "CC(=O)OC[C@@]1(C)C2CC[C@]3(C)C(CC=C4C5CC(C)(C)CC[C@]5(C(=O)Nc5ccc(C)cc5)CC[C@]43C)[C@@]2(C)C[C@@H](OC(C)=O)[C@@H]1OC(C)=O (stereo partly drawn)"
label_class = "YES"

[[record]]
compound = "S=C(Nc1ccc(OCc2nc3ccccc3[nH]2)cc1)NC1CCCCC1"
label_class = "NO"

[[record]]
compound = "O=c1oc2ccccc2cc1-c1csc(N=Nc2c(O)[nH]c3ccc(Cl)cc23)n1"
label_class = "NO"

[[record]]
compound = "Cc1cc(C)n(-c2ccc3nnc(-c4ccccc4)n3n2)n1"
label_class = "NO"


# evaluate next
Exam item: Dear colleague, could you confirm whether growth of `Cc1cccc(-c2nc(Nc3cccc(S(N)(=O)=O)c3)c3ccccc3n2)c1` falls below 80%? Thanks.
Marked response: YES

====

Listed next: entries and their corresponding growth.
Test system: MCF7 breast
Assay: NCI-60 one-dose screen, 48 h (100 = growth as untreated, 0 = no growth, -100 = all killed)
Conditions: 10 µM unless noted
The panel holds about 83,000 compounds, 20% with a hit somewhere; the sample as a whole holds those more often.
Kindly provide the numeric value in % only, without the unit symbol.

Solved entries (count: 10):
[[record]]
compound = "O=C(N/N=C/c1ccc(-c2ccc(O)cc2)o1)c1[nH]c2ccc(Br)cc2c1-c1ccccc1"
reported_result = -3.44

[[record]]
compound = "Cc1ccc([C@H]2C(C(=O)c3ccc(Cl)cc3)C3(N[C@@H]2c2ccccc2)C(=O)Nc2ccc(Cl)cc23)cc1 (stereo partly drawn)"
reported_result = 16.7

[[record]]
compound = "O=C(CN1C(=O)/C(=C/c2ccccc2Cl)SC1=S)N1CCOCC1"
reported_result = 49.6

[[record]]
compound = "O=C(/C=C/c1ccc(-c2ccccc2)cc1)c1nc2ccccc2n1Cc1ccc(Br)cc1"
reported_result = 21.3

[[record]]
compound = "Cc1ccc([C@H]2C(C(=O)c3ccc(Cl)cc3)C3(N[C@@H]2c2ccccc2)C(=O)Nc2ccc(Br)cc23)cc1 (stereo partly drawn)"
reported_result = 21.2

[[record]]
compound = "CC(C)c1sc(NC(=O)c2cc(NC(=O)c3cc(NC(=O)c4cscn4)cn3C)cn2C)nc1C(=O)NCCCN(C)C"
reported_result = 24.5

[[record]]
compound = "CN(C)CCn1c2ccccc2c2nc3ccc([N+](=O)[O-])cc3nc21"
reported_result = 12.4

[[record]]
compound = "Cn1cc(-c2nc(N)nnc2-c2c[nH]c3ccc(F)cc23)c2cc(Br)cnc21"
reported_result = 4.55

[[record]]
compound = "CC1=C(C(=O)c2ccccc2)C(c2cccc(Cl)c2Cl)n2c(nc3ccccc32)N1 (stereo not drawn)"
reported_result = 26.7

[[record]]
compound = "COc1ccc(-c2cc(C(=O)NCc3ccccc3)nn2-c2ccc(S(C)(=O)=O)cc2)cc1OC"
reported_result = 95.2


Exam item: What does the data say about its growth? Entry: `O=c1cc(-c2ccccc2)oc2cc(OCCCC[P+](c3ccccc3)(c3ccccc3)c3ccccc3)cc(O)c12`
Marked response: -79.1

Exam item: What does the data say about its growth? Entry: COc1ccc(NC(=O)[C@@H](N)Cc2ccccc2)cc1C(=O)Nc1cccc(C2CC(=O)c3c(cc(OC)c(OC)c3OC)O2)c1 (stereo partly drawn)
Marked response: 28.1

Exam item: What does the data say about its growth? Entry: `Cc1cc2c(cc1Cl)C(=O)/C(=C/c1ccc(F)cc1)O2`
Marked response: 37.9

====

Test system: SK-OV-3 ovarian
Experiment: NCI-60 one-dose screen, 48 h
Conditions: 10 µM unless noted
The panel holds about 83,000 compounds, 20% with a hit somewhere; the sample as a whole holds those more often. The source made the active and inactive calls. The calls were made as follows: active = growth percent below 10; inactive = the rest.
Outcome field: choose from 1 (yes) (active), 0 (no) (inactive)

The examples below pair each entry with its known result.
[[record]]
compound = "Cc1ccccc1[C@H]1C(C(=O)c2ccc(Cl)cc2)C2(N[C@@H]1c1ccccc1)C(=O)Nc1ccc(Cl)cc12 (stereo not given in full)"
label_class = "1 (yes)"

[[record]]
compound = "Cc1cc(=O)oc2cc(OCCOc3ccc(/C=C/C(=O)Nc4ccccc4N)cc3)ccc12"
label_class = "0 (no)"

[[record]]
compound = "O=C(c1ccccc1)c1ccc2nc(-c3ccc(F)cc3)[nH]c2c1"
label_class = "0 (no)"

[[record]]
compound = "O=C(N=Nc1c(O)[nH]c2ccc([N+](=O)[O-])cc12)c1ccc2nc(-c3ccccc3)[nH]c2c1"
label_class = "0 (no)"


# evaluate next
Exam item: // outcome(item) with item = `CC(C)c1ccc2c(N)c(C(=O)Nc3cccc(C(F)(F)F)c3)sc2n1`
Marked response: 0 (no)

====

System: HS 578T breast
Assay: NCI-60 one-dose screen, 48 h (100 = growth as untreated, 0 = no growth, -100 = all killed)
Conditions: 10 µM unless noted
The panel holds about 83,000 compounds, 20% with a hit somewhere; the sample as a whole holds those more often.
readout type: growth (%)
Kindly provide the numeric value in % only, without the unit symbol.

Solved entries (count: 4):
[[record]]
molecule = "O=C(C1=CNC(=S)NC1c1ccc(O)cc1)c1cc2ccccc2oc1=O (centres undefined)"
reported_result = 97.8

[[record]]
molecule = "CCOC(=O)C(N=Nc1ccc(S(=O)(=O)N=C(N)N)cc1)C(C)=O (centres undefined)"
reported_result = 111

[[record]]
molecule = "CN(C)c1nc(NCCNS(=O)(=O)c2ccc(C(=O)/C=C/c3ccc(C(F)(F)F)cc3)cc2)nc(Nc2ccc(F)cc2)n1"
reported_result = 52.1

[[record]]
molecule = "COc1ccc(N2N=C(c3ccc4c(c3)OCO4)CC2c2cccc(NC(=O)CCCNS(=O)(=O)c3ccc(F)cc3)c2)cc1 (centres undefined)"
reported_result = 67.2


Next molecule, growth to be filled in.
Exam item: What does the data say about its growth? Entry: COc1ccc2oc(=O)c(C3(C)NC(=O)c4c(/C=C/C(=O)OC(C)(C)C)cccc4N3)cc2c1 (centres undefined)
Marked response: 60

====

Test system: SNB-19 CNS
Assay: NCI-60 one-dose screen, 48 h (100 = growth as untreated, 0 = no growth, -100 = all killed)
Conditions: 10 µM unless noted
Compounds without any hit were thinned out: in the full panel of roughly 83,000, 20% have a hit.
Please note: growth exactly at 50% is no. Only values below 50% get yes.

[[record]]
molecule = "Cc1nc(Nc2ccccn2)sc1C(=O)CC(SCC(=O)Nc1ccc(Cl)cc1)c1ccccc1F (centres undefined)"
label_class = "yes"

[[record]]
molecule = "COc1ccc(-c2nnc3ccc(N/N=C/c4ccc(O)cc4)nn23)cc1"
label_class = "no"

[[record]]
molecule = "CCOC(=O)C1=C(N)N(c2ccccc2)C2=C(C(=O)CC(C)(C)C2)C1c1ccc(Cl)cc1Cl (centres undefined)"
label_class = "yes"

[[record]]
molecule = "COc1c(F)ccc(C(=O)Nc2ccc3nc(NC(=O)C4CCCN(S(=O)(=O)c5cccc(C(F)(F)F)c5)C4)sc3c2)c1F (centres undefined)"
label_class = "no"

[[record]]
molecule = "COc1ccc(C2CC(c3ccc(S(=O)(=O)NCCNc4nc(Nc5ccc(F)cc5)nc(N(C)C)n4)cc3)=Nc3c(N)nc(N)nc3N2)cc1 (centres undefined)"
label_class = "no"

[[record]]
molecule = "C=C1CC[C@@H]2[C@]3(C)COC(c4cn[nH]c4-c4ccc(C)cc4)O[C@@H]3CC[C@@]2(C)[C@@H]1C/C=C1/C(=O)OCC1O (some centres undefined)"
label_class = "yes"


Exam item: Dear colleague, could you confirm whether growth of `O=C(Cn1c(/C=C/c2ccccc2)nc2ccccc2c1=O)Nc1ccc(Cl)cc1` falls below 50%? Thanks.
Marked response: no

Exam item: Dear colleague, could you confirm whether growth of `Cn1cc(-c2cc(N)n3nc(-c4cn(C)c5ccccc45)cc3n2)c2cc(Br)ccc21` falls below 50%? Thanks.
Marked response: yes

Exam item: Dear colleague, could you confirm whether growth of `C#CCOc1ccc(/C=N/Nc2nc(-c3ccc(F)cc3)cs2)cc1OC` falls below 50%? Thanks.
Marked response: no
